Target: LILRA3 (human (not printed on the sheet), UniProt Q8N6C8)
Sequence (Q8N6C8 24-439 limits assumed): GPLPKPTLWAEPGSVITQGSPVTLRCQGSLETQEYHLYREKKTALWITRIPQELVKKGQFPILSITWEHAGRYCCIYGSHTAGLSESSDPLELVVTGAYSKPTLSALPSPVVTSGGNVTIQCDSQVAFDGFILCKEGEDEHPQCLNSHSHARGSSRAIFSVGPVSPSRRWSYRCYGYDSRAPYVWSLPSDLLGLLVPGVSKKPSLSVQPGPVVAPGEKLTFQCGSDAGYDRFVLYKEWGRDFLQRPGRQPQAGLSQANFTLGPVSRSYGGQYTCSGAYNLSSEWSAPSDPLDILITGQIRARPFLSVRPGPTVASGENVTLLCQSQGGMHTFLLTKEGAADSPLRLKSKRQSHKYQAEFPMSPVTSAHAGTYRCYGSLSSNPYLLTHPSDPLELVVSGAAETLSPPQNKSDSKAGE
Experiment: LILR reporter cells on coated antibody, GFP positive (%)

BINDER	binding result
h193 antibody No. 24 (h193-H4 / h193-K2) (antibody, V domains shown) VH: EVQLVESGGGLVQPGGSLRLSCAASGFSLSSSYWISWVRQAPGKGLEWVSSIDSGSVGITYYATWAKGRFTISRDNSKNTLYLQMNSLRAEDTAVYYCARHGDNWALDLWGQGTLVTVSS VL: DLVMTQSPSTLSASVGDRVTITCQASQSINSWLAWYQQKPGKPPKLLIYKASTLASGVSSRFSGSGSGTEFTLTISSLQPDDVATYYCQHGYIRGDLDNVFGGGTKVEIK	no binding
h193 antibody No. 28 (h193-H5 / h193-K2) (antibody, V domains shown) VH: EVQLVESGGGLVQPGGSLRLSCAASGFSLSSSYWISWVRQAPGKGLEWIGVIDSGSVGITYYATWAKGRFTISRDNSKNTLYLQMNSLRAEDTAVYYCARHGDNWALDLWGQGTLVTVSS VL: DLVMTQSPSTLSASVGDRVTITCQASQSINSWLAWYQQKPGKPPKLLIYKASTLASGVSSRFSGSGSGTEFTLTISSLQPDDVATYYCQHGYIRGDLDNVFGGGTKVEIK	no binding
h193 antibody No. 36 (h193-H7 / h193-K2) (antibody, V domains shown) VH: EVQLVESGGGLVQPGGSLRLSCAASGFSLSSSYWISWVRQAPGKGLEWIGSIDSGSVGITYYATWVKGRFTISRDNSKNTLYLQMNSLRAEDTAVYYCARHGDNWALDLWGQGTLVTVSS VL: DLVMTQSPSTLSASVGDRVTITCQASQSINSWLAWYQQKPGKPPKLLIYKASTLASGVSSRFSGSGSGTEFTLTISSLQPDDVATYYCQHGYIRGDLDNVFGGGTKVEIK	no binding

Values were extracted from patent US20210371518A1.
